biological target: Fes (UniProt P07332); test: phosphorylation enrichment, bacterial display (enrichment ratio); higher = better substrate or ligand; peptides without Tyr show the background;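 also: 11-residue human phosphosite peptides and single-mutation variants displayed on the E. coli surface, counted by deep sequencing, each peptide's frequency after selection divided by its frequency in the unselected input library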;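 also: frequency after pTyr selection over input frequency; kinase dosed for 20-30% of maximal phosphorylation in three min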
Sequence (P07332 whole entry, looked up): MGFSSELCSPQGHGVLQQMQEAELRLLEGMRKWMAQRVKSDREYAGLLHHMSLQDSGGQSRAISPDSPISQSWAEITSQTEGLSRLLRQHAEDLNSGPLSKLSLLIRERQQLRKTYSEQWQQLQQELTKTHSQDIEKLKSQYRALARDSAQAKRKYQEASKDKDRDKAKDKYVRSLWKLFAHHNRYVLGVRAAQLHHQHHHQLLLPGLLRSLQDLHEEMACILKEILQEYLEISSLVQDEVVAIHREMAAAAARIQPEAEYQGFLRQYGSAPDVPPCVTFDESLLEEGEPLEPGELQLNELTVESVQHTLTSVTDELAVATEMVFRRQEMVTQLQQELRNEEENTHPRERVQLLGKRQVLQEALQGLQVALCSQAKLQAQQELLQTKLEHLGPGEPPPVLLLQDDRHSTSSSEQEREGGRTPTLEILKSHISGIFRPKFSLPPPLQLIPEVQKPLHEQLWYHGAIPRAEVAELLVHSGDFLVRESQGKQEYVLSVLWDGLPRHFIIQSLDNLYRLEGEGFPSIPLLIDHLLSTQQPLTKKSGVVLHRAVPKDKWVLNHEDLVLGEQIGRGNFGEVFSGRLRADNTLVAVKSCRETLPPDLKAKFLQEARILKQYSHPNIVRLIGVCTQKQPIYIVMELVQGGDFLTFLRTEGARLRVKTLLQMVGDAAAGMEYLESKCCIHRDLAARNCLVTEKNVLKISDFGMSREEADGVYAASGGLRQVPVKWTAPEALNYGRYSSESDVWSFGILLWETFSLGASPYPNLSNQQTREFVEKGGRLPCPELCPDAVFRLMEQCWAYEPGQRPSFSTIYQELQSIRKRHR
recorded-endpoint: phosphorylation enrichment

residue_codes="VNYGAYINDFK [GLB1_Y488]" recorded_endpoint="phosphorylation enrichment" data_value=0.86
residue_codes="RHLLRYLSWTV [CLCNKB_Y93_S88R]" recorded_endpoint="phosphorylation enrichment" data_value=1.29
residue_codes="SVTCTYSPAHN [TP53_Y126_L130H]" recorded_endpoint="phosphorylation enrichment" data_value=1.59
residue_codes="YLEKYYKFGSR [NNMT_Y25]" recorded_endpoint="phosphorylation enrichment" data_value=0.779
residue_codes="VTGWGYRKLRD [F11_Y521]" recorded_endpoint="phosphorylation enrichment" data_value=0.703
residue_codes="QQLVAYYSKHT [SRC_Y232_A237T]" recorded_endpoint="phosphorylation enrichment" data_value=0.951
residue_codes="ERLWDCGMSSS [F8_Y1728_Y1728C]" recorded_endpoint="phosphorylation enrichment" data_value=0.771
residue_codes="LERDIYNREEF [HLA-DPB1_Y59_Y57D]" recorded_endpoint="phosphorylation enrichment" data_value=1.62
residue_codes="PFTRNYYVQAV [CYBA_Y87_R90Q]" recorded_endpoint="phosphorylation enrichment" data_value=1.1
residue_codes="NNKKDYYDMYE [SLC26A3_Y526_K521N]" recorded_endpoint="phosphorylation enrichment" data_value=1.04
residue_codes="IGRHAYGDQYR [IDH1_Y135]" recorded_endpoint="phosphorylation enrichment" data_value=0.599
residue_codes="NLSVRYDSSLK [ABCC8_Y1353]" recorded_endpoint="phosphorylation enrichment" data_value=0.98
residue_codes="LIHLHYIRRDF [BBS4_Y43_K46R_YF]" recorded_endpoint="phosphorylation enrichment" data_value=1.02
residue_codes="FADIAYNYHHG [PAH_Y166_R169H]" recorded_endpoint="phosphorylation enrichment" data_value=0.803
residue_codes="GKTFTYRSVFF [ZNF80_Y200]" recorded_endpoint="phosphorylation enrichment" data_value=0.951
residue_codes="TGFRPYVCPFD [YY1_Y383_D380Y_YF]" recorded_endpoint="phosphorylation enrichment" data_value=0.975
residue_codes="IFQASYFRRGD [LTK_Y676_R673Q_YF]" recorded_endpoint="phosphorylation enrichment" data_value=1.23
residue_codes="VRFTEYETQVK [TARDBP_Y155]" recorded_endpoint="phosphorylation enrichment" data_value=0.896
residue_codes="WASQRYGRELR [BAD_Y110_A107S]" recorded_endpoint="phosphorylation enrichment" data_value=0.84
residue_codes="DKITQYVEEVR [STX2_Y49_K54R]" recorded_endpoint="phosphorylation enrichment" data_value=1.08
residue_codes="EEGNPSYSSAR [MCCC2_Y520_Y520S]" recorded_endpoint="phosphorylation enrichment" data_value=1
residue_codes="YGSGNYNDFGN [HNRNPA2B1_Y300]" recorded_endpoint="phosphorylation enrichment" data_value=1.08
residue_codes="RLAKTYETTLK [ALB_Y377_E382K]" recorded_endpoint="phosphorylation enrichment" data_value=0.848
residue_codes="FISVGYVDDTQ [HLA-B_Y51]" recorded_endpoint="phosphorylation enrichment" data_value=1.05
residue_codes="RNYDTYTAGLS [RHBDD1_Y264]" recorded_endpoint="phosphorylation enrichment" data_value=0.901
residue_codes="KLKEKYEKDIA [HMGB1_Y155]" recorded_endpoint="phosphorylation enrichment" data_value=0.82
residue_codes="IEDPFYGNDSD [ACP1_Y133_YF]" recorded_endpoint="phosphorylation enrichment" data_value=1.55
residue_codes="NELTYYCCKKD [CD59_Y87]" recorded_endpoint="phosphorylation enrichment" data_value=1.3
residue_codes="CTTIHYNFTCN [TP53_Y234_M237T_YF]" recorded_endpoint="phosphorylation enrichment" data_value=0.866
residue_codes="SVTCTYSPAFN [TP53_Y126_L130F]" recorded_endpoint="phosphorylation enrichment" data_value=1.51
residue_codes="RDWSLYFKIIE [KRT18_Y129_H128L]" recorded_endpoint="phosphorylation enrichment" data_value=1.56
residue_codes="EAGKVYLKAPM [CBFB_Y96]" recorded_endpoint="phosphorylation enrichment" data_value=0.939
residue_codes="PADCRYFAFPQ [GAMT_Y222_YF]" recorded_endpoint="phosphorylation enrichment" data_value=0.99
residue_codes="PIFLFYLMDLS [ITGB2_Y131_D128Y_YF]" recorded_endpoint="phosphorylation enrichment" data_value=3.28
residue_codes="NVTGHYISPFH [PPA2_Y59]" recorded_endpoint="phosphorylation enrichment" data_value=0.542
residue_codes="VTQEPYELYCE [CBL_Y368_Q367P]" recorded_endpoint="phosphorylation enrichment" data_value=1.13
residue_codes="RNGDRYFKGIV [DCX_Y64]" recorded_endpoint="phosphorylation enrichment" data_value=0.632
residue_codes="PLDGESFTLQI [TP53_Y327_Y327S]" recorded_endpoint="phosphorylation enrichment" data_value=1.67
residue_codes="CSPLLYRVIMS [OR8D4_Y132]" recorded_endpoint="phosphorylation enrichment" data_value=1.25
residue_codes="KQLGEYKFQNA [ALB_Y425_E420K]" recorded_endpoint="phosphorylation enrichment" data_value=0.565
residue_codes="NESVDYRATFP [MET_Y1003]" recorded_endpoint="phosphorylation enrichment" data_value=0.802
residue_codes="AACQHYGVHTC [NR4A2_Y275_R278H]" recorded_endpoint="phosphorylation enrichment" data_value=0.63
residue_codes="LFEDHYLLGTS [ASS1_Y87_R86H_YF]" recorded_endpoint="phosphorylation enrichment" data_value=1.15
residue_codes="YIATQYSLRPR [LBR_Y166]" recorded_endpoint="phosphorylation enrichment" data_value=0.773
residue_codes="RRIHSYRRHLW [VHL_Y112_G114R]" recorded_endpoint="phosphorylation enrichment" data_value=0.699
residue_codes="MICSAYALGGL [CPS1_Y590_R587C]" recorded_endpoint="phosphorylation enrichment" data_value=1.05
residue_codes="DNEALYDICFR [TUBB2B_Y208]" recorded_endpoint="phosphorylation enrichment" data_value=1.6
residue_codes="TGEDWYVLVRV [SF3B3_Y904_G908R]" recorded_endpoint="phosphorylation enrichment" data_value=1.42
residue_codes="AGDGRYEVLFL [SEMA3F_Y478_A474G]" recorded_endpoint="phosphorylation enrichment" data_value=1.02
